# experimental_target: Hepatocyte growth factor receptor (Homo sapiens, UniProt P08581, F1200I)
# test_protocol: Displacement of tracer 236 from N-terminal GST-tagged recombinant human MET F1200I mutant (956 to end residues) expressed in Sf9 insect cells incubated for 1 hr by TR-FRET assay
outcome_measure: IC50 (nM)

a: Cc1cc(N(c2cc(F)c(NC(=O)c3ccnn(-c4ccc(F)cn4)c3=O)cc2F)[C@H]2C[C@H](c3ccn(C)n3)C2)c(F)cn1
b: Cn1ccc([C@H]2C[C@H](N(c3cc(F)c(NC(=O)c4ccnn(-c5ccc(F)cn5)c4=O)cc3Cl)c3nccn4nccc34)C2)n1
c: O=C(Nc1cc(F)c(Oc2cccn3nccc23)cc1F)c1ccnn(-c2ccc(F)cc2)c1=O
input: Hey, quick one: sort these by IC50, largest value first please. // ordering of labels required in reply
output: c, b, a
(c: 5000 nM, b: 147 nM, a: 98 nM)

Reference source for all entries: ChEMBL document CHEMBL5576125
